# Test system: P. falciparum stage V gametocytes
# Set-up: BacTiter-Glo ATP luminescence viability of purified stage V gametocytes in 384-well plates, per cent inhibition versus DMSO
# measurement_context: 48 h, 5 µM; inhibitor
Screen size: about 13,000 compounds; about 3,200 (25%) showed an effect of 50% or more. The list shows a part of the results.
observation_type: % Inhibition (%)
Please state the figure in %; there is no need to write the unit.

Supply recorded % Inhibition for Cc1cccc2nc(-c3cccc(-c4cccc(CNCCNC(=O)c5ccnn5C)c4)c3)[nH]c12.O=C(O)C(F)(F)F here.
-4.375

Supply recorded % Inhibition for Cc1cccc2nc(-c3ccc(-c4ccc(CNCCNC(=O)c5ccnn5C)cc4)s3)[nH]c12.O=C(O)C(F)(F)F here.
4.683

Supply recorded % Inhibition for COc1ccc(CNCc2ccccc2)cc1-c1cccc(S(=O)(=O)NCCN2CCCC2)c1 here.
57.83

Supply recorded % Inhibition for Oc1c(C(Nc2ccccn2)c2ccc(Cl)cc2Cl)ccc2cccnc12 (centres unmarked) here.
98.53

Supply recorded % Inhibition for CCCCCN1C(=O)C(c2ccccc2)(c2ccccc2)N=C1N here.
-32.2

Supply recorded % Inhibition for COc1cccc(Nc2nc(C)cc(NCc3ccc(-c4c(C)noc4C)cc3)n2)c1 here.
9.249

Supply recorded % Inhibition for O=[N+]([O-])c1ccc2c(-c3ccccc3)c(-c3ccccc3)n(O)c2c1 here.
9.077

Supply recorded % Inhibition for Cc1cccc2[nH]c(-c3cccc(-c4ccc(NC(=O)Nc5ccc(Cl)cc5)cc4)c3)nc12 here.
12.12

Supply recorded % Inhibition for Cc1cccc2nc(-c3ccc(-c4cccc(CNCCNC(=O)c5ccnn5C)c4)s3)[nH]c12.O=C(O)C(F)(F)F here.
-0.5354

Supply recorded % Inhibition for COc1ccc2nccc([C@@H](O)CN3CCC(NCCNc4ccccn4)CC3)c2c1 here.
28.84

Supply recorded % Inhibition for CC(C)C1C(O)=C(c2ccc3ccccc3c2)C(=O)N1Cc1cccc(F)c1 (centres unmarked) here.
28.08

Supply recorded % Inhibition for CC(C)C[C@@H](NC(=O)OC(C)(C)C)C(=O)Nc1ccc(Cc2ccc(NC(=O)[C@@H](CC(C)C)NC(=O)OC(C)(C)C)cc2)cc1 here.
-46.99

Supply recorded % Inhibition for Cc1cccc2[nH]c(-c3ccc(-c4ccc(NC(=O)C(=O)c5cccn5C)cc4)cc3)nc12 here.
78.98

Supply recorded % Inhibition for CCOCc1cnc(C)nc1NCC(=O)c1c(C)[nH]c2cc(C)ccc12 here.
-5.397

Supply recorded % Inhibition for COc1ccc(F)cc1-c1cccc(CNC2CCN(CC3Cn4c(=O)ccc5ccc(F)c3c54)CC2)c1 (centres unmarked) here.
-45.9

Supply recorded % Inhibition for O=[N+]([O-])c1ccc2c(c1)c1ccccc1n2Cc1ccccc1O here.
66.38

Supply recorded % Inhibition for Cc1ccc(Oc2ccc(CNc3nc(Nc4cccc(F)c4)nc(Nc4cccc(F)c4)n3)cc2)cc1 here.
50.43

Supply recorded % Inhibition for CN(CC(=O)Nc1cc(C(F)(F)F)ccc1-n1cncn1)Cc1ccc2ccccc2c1 here.
-1.841

Supply recorded % Inhibition for CC(C)c1sc(N2CCCCC2)nc1C(=O)Nc1ccc(F)cc1C(F)(F)F here.
-21.66

Supply recorded % Inhibition for COc1ccc(CCCN2C(=O)C(c3ccccc3)(c3ccccc3)N=C2N)cc1 here.
-39.16

Supply recorded % Inhibition for Cc1cccc2nc(-c3cccc(-c4ccc(CNCCNC(=O)c5ccnn5C)cc4)c3)[nH]c12.O=C(O)C(F)(F)F here.
31.89

Supply recorded % Inhibition for Cc1cccc2nc(-c3ccc(-c4ccc(CNCCNC(=O)c5ccnn5C)cc4)cc3)[nH]c12.O=C(O)C(F)(F)F here.
85.49

Supply recorded % Inhibition for Cn1cncc1-c1cc2c(Nc3ccc(OCc4ccccc4)cc3)ncnc2cn1 here.
-27.44

Supply recorded % Inhibition for CC(=O)Nc1cccc(CNc2cc(C)nc(Nc3ccc(C)cc3)n2)c1 here.
27.64

Supply recorded % Inhibition for Cc1nc2ccc([N+](=O)[O-])cc2c(=O)n1OCc1ccccc1 here.
18.76

Supply recorded % Inhibition for O=C(Cc1ccccc1)NC(c1ccco1)c1cc(Cl)c2cccnc2c1O (centres unmarked) here.
-24.24

Supply recorded % Inhibition for Cc1cccc2nc(-c3ccc(-c4ccc(CNCC5CCCO5)cc4)cc3)[nH]c12.O=C(O)C(F)(F)F (centres unmarked) here.
-8.859

Supply recorded % Inhibition for O=C(Nc1ccc(OCc2ccccc2)cc1)c1nc2ccccc2nc1Cl here.
4.904

Supply recorded % Inhibition for Cc1cccc2[nH]c(-c3ccc(-c4cccc(NC(=O)Nc5ccccc5)c4)cc3)nc12 here.
0.6364

Supply recorded % Inhibition for COc1ccc(CNCc2ccc(F)cc2)cc1-c1cccc(S(=O)(=O)NCCN2CCCC2)c1 here.
101.2

Supply recorded % Inhibition for C=CC[C@H](C[C@H](O)[C@H](Cc1ccccc1)NC(=O)c1ccc(-n2cccn2)cc1)C(=O)NC1CCCCC1 here.
10.16

Supply recorded % Inhibition for Cc1cccc2[nH]c(-c3cccc(-c4cccc(NC(=O)Nc5cccc(C#N)c5)c4)c3)nc12 here.
-35.1
